Protein target, amino acids: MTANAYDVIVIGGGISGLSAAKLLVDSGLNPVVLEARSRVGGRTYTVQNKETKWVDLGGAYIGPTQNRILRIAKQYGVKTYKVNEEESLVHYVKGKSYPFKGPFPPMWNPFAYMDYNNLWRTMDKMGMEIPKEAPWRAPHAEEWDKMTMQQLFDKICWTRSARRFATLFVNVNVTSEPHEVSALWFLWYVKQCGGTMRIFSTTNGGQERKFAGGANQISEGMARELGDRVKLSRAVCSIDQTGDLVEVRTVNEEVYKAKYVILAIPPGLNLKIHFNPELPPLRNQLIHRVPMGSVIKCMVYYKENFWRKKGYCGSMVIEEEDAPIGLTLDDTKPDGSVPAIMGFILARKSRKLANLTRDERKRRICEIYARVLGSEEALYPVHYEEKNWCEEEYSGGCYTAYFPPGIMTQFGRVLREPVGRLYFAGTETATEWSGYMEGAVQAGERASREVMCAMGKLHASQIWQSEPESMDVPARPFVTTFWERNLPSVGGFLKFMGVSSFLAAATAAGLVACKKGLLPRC
reported property: Ki (µM)
Numbers only; they are read as µM.

Query (compound): NS(=O)(=O)Cc1noc2ccccc12 [ZONISAMIDE] ; field requested: Ki 30.8

====

# target under test: Amine oxidase [flavin-containing] B (Rattus norvegicus, UniProt P19643)
# Sequence (P19643 whole entry): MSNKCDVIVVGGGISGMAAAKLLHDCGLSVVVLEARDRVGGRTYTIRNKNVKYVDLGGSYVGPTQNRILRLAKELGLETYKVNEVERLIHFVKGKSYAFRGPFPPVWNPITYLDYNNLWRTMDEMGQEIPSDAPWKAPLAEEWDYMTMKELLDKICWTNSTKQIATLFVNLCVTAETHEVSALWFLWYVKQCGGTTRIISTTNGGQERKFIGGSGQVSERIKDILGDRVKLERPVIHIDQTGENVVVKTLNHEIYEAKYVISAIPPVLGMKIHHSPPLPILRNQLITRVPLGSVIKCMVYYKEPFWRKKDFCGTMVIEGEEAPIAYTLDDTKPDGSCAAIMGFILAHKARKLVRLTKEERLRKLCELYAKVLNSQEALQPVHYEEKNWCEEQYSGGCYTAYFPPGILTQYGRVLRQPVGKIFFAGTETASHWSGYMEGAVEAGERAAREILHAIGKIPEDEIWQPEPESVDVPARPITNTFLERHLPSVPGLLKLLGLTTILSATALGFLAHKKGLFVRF
reported property: Ki (nM)
Numbers only; they are read as nM.

Query (compound): NS(=O)(=O)Cc1noc2ccccc12 [ZONISAMIDE] ; field requested: Ki 2900

====

# Tested on: Serum
# test protocol: Drug level in parkinson's disease patient serum at 25 mg/day
# Type: ADME, cell-free
# condition context: human, read-out: Drug uptake
reported property: concentration (nM)
Numbers only; they are read as nM.

Hi! What's the reported concentration for NS(=O)(=O)Cc1noc2ccccc12 [ZONISAMIDE] on Serum? 600
